Data origin, for the record: ChEMBL document CHEMBL1201862

# Tested on: OVCAR-5
# TEST_NAME: NCI tumour cell line growth inhibition, 48 h
The source made the active and inactive calls. Cut-off read from the data, not from the text of the source: active = GI50 up to about 1.1 µM and inactive = higher.
Classes to choose from: active, inactive

>  <COMPOUND>
Cc1cccc(-c2cc(O)c3cc(C)cnc3n2)c1

>  <LABEL_CLASS>
active

$$$$

Enquiry: Each compound tested received a call. Report the one for `COc1ccc(CNC(=O)NCn2cc(-c3ccccc3)nn2)cc1` .
Return: inactive

Enquiry: Each compound tested received a call. Report the one for O=P(Nc1ccccc1)(Oc1ccccc1)N(CCCl)CCCl (stereo not given) .
Return: inactive

Enquiry: Each compound tested received a call. Report the one for `CC(=O)Nc1cccc(/N=N/N(C)C)c1` .
Return: inactive

Enquiry: Each compound tested received a call. Report the one for C=CC1(C)OC2(CCN(C(=O)OCC)CC2)OC1C (stereo not given) .
Return: inactive

----------
# Tested on: DU-145
# TEST_NAME: NCI tumour cell line growth inhibition, 48 h
The source made the active and inactive calls. Rule as the data show it: active = GI50 up to about 1.1 µM and inactive = higher.
Classes to choose from: active, inactive

>  <MOLECULE>
C[C@]12CC[C@@H]3c4ccc(OC(=O)c5ccccc5)cc4CC[C@H]3[C@@H]1CC[C@@H]2Oc1c2ccccc2nc2ccccc12

>  <LABEL_CLASS>
inactive

$$$$
>  <MOLECULE>
CN(C)Cc1cc(C(C)(C)C)cc(CNC2CCCCC2)c1O

>  <LABEL_CLASS>
inactive

$$$$
>  <MOLECULE>
CCc1nnc(S)n1/N=C\c1ccc(-c2ccccc2Cl)o1

>  <LABEL_CLASS>
inactive

$$$$
>  <MOLECULE>
CC(C)C1N(C)c2ccc(Cl)cc2[C@H]2c3ccccc3CCN12 (stereo partly drawn)

>  <LABEL_CLASS>
inactive

$$$$

Enquiry: Each molecule tested received a call. Report the one for `CC(C)C[C@H](NC(=O)[C@H](Cc1ccccc1)NC(=O)CCc1ccccc1)B(O)O` .
Return: active

Enquiry: Each molecule tested received a call. Report the one for Cc1nc(C)c(N2CCN(C(=O)NC(CCC(=O)O)C(=O)O)CC2)c(O)n1 (stereo not drawn) .
Return: inactive

Enquiry: Each molecule tested received a call. Report the one for Oc1ccc([C@H]2c3c(O)cc(O)cc3C3c4c(cc(O)cc4[C@@H]2[C@H]2c4cc(O)cc5c4C(c4cc(O)cc(O)c4[C@@H]2c2ccc(O)cc2)[C@@H](c2ccc(O)cc2)O5)O[C@@H]3c2ccc(O)cc2)cc1 (stereo partly drawn) .
Return: inactive

Enquiry: Each molecule tested received a call. Report the one for `COC(=O)c1cc(C)ccc1/C=C1\Cc2cc(C)c(C)cc2C1=O` .
Return: inactive

Enquiry: Each molecule tested received a call. Report the one for `Nc1cc(N2CCCC2)nc(=O)n1-c1ccccc1` .
Return: inactive

----------
# System: SK-MEL-28
# TEST_NAME: NCI tumour cell line growth inhibition, 48 h
Calls of active or inactive are those of the source. Rule as the data show it: active = GI50 up to about 1.1 µM and inactive = higher.
Classes to choose from: active, inactive

>  <COMPOUND>
COc1ccc2c(c1)CCC/C2=N\NS(=O)(=O)c1c(C)cc(C)cc1C

>  <LABEL_CLASS>
inactive

$$$$

Enquiry: Each compound tested received a call. Report the one for `CC1=CC(=O)c2c(O)cccc2C1=O` .
Return: inactive

Enquiry: Each compound tested received a call. Report the one for Cc1ccc(C(=O)NC2C(=O)NC(C(C)C)C(=O)N3CCCC3C(=O)N(C)CC(=O)N(C)C(C(C)C)C(=O)OC2C)c2c1Oc1c(c(C(=O)NC3C(=O)NC(C(C)C)C(=O)N4CCCC4C(=O)N(C)CC(=O)N(C)C(C(C)C)C(=O)OC3C)c3nc(-c4ccccc4)c(=O)oc3c1C)N2 (centres undefined) .
Return: active

Enquiry: Each compound tested received a call. Report the one for `O=C(Sc1c(-c2ccccc2)c(=O)n(-c2ccccc2)c(=S)n1-c1ccccc1)c1ccccc1` .
Return: inactive

Enquiry: Each compound tested received a call. Report the one for `Nc1cc(S(=O)(=O)O)cc2ccc(S(=O)(=O)O)cc12` .
Return: inactive

Enquiry: Each compound tested received a call. Report the one for CC1=C/C(=N\NC(N)=S)C(C(O)(C(F)(F)F)C(F)(F)F)C(C)(C)C1 (centres undefined) .
Return: inactive

Enquiry: Each compound tested received a call. Report the one for `C1=C(N2CCOCC2)/C(=C2\SC(=N/c3ccccc3)/C(=N\c3ccccc3)N2c2ccccc2)CC1` .
Return: inactive

Enquiry: Each compound tested received a call. Report the one for CC1(C)C(CCO)CC1n1ccc(=O)[nH]c1=O (centres undefined) .
Return: inactive

Enquiry: Each compound tested received a call. Report the one for `N#C/N=C(/N)c1sc2nc3c(c(-c4ccc(Br)cc4)c2c1N)CCCC3` .
Return: inactive

Enquiry: Each compound tested received a call. Report the one for COC(=O)C(=O)C(C(=O)C(=O)Nc1cc(C)ccc1C)c1nc2ccccc2nc1O (centres undefined) .
Return: inactive

Enquiry: Each compound tested received a call. Report the one for COc1cccc(NC(=O)CC(=O)N2N=C(N(CCC#N)c3ccccc3C)CC2c2ccccc2)c1 (centres undefined) .
Return: inactive

Enquiry: Each compound tested received a call. Report the one for COc1ccc(OC)c(CC(C)N)c1 (centres undefined) .
Return: inactive

Enquiry: Each compound tested received a call. Report the one for `COc1ccc(-c2oc3ccc(C)cc3c(=O)c2O)cc1` .
Return: inactive

Enquiry: Each compound tested received a call. Report the one for `Nc1cc(N2CCCC2)nc(=O)n1-c1ccccc1` .
Return: inactive
